Origin of the recorded values: patent US20110046130A1

Target: human H3 receptors (Homo sapiens)
Sequence (Q9Y5N1 whole entry): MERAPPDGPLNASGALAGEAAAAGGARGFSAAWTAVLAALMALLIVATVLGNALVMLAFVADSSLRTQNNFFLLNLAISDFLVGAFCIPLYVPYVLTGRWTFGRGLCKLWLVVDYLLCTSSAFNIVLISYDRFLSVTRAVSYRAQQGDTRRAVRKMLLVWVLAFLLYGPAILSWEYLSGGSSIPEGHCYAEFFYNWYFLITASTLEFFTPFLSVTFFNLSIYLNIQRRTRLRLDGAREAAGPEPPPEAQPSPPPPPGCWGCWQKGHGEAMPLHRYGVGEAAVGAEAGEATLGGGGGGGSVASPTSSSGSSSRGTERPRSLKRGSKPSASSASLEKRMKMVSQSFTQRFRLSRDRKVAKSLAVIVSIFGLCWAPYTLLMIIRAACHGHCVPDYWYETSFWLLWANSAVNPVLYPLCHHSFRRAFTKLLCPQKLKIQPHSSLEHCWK
Assay: cAMP quantification protocol for human H3 receptor testing
Settings: inhibition of agonist-induced (100 nM histamine, 10 μM forskolin) decrease of intracellular cAMP; CHO-K1 cell line expressing human H3 receptors; read-out: Potency range (IC50 values)
measurement.name: IC50

Example entries begin here.
CN1CCc2nc(OCCCN3CCCC3)ccc2C1    < 100 nM
CC(C)N1CCC(N(C)c2ccc3c(n2)CCN2C(=O)CCCC32)CC1 (centres unmarked)    < 100 nM
CC(C)N1CCC(Oc2ccc3c(n2)CCN2C(=O)CCCC32)CC1 (centres unmarked)    < 100 nM

Fill in IC50 for each of the 2 compounds listed.
1. CN(c1nc2c(cc1C#N)C1CCCC(=O)N1CC2)C1CCN(C2CCC2)CC1 (centres unmarked)
2. CN1CCC(Oc2ccc3c(n2)CCN2C(=O)CCCC32)CC1 (centres unmarked)

< 100 nM
500 to 5000 nM
